# potency estimated from few doses annotations
- System: TNIK
- Parameters: species or system human, MV4-11 + K-562 + COLO205 + SK-N-BE2 + OVCAR-8
- Condition: read-out: apparent Kd; compound concentrations:100 nM and 1000 nM (sheet 'Samples'); n = 1
Report as a plain number; the unit nM is understood.

Cc1n[nH]c2ccc(-c3cc(OC[C@@H](N)Cc4ccccc4)cnc3-c3ccoc3)cc12.Cc1n[nH]c2ccc(-c3cc(OC[C@@H](N)Cc4ccccc4)cnc3-c3ccoc3)cc12.O=C(O)C(F)(F)F.O=C(O)C(F)(F)F [GSK507358A]; 141
NS(=O)(=O)c1ccc(N/N=C2\C(=O)Nc3ccc(-c4cnco4)cc32)cc1; 1940

Report measured potency estimated from few doses; entry is O=C(O)C(F)(F)F.O=c1[nH]ccc2nc(N[C@@H]3CCNC3)nc(Nc3cc(Cl)cc(Cl)c3)c12 [GSK2188764A]
1270

Report measured potency estimated from few doses; entry is Cc1cccc(-c2n[nH]cc2-c2ccc3ncccc3n2)n1 [GW786460X]
1720

Report measured potency estimated from few doses; entry is c1ccc(-c2n[nH]cc2-c2ccnc(-c3ccc(CNC4CCOCC4)cc3)c2)nc1 [GW709213X]
2410

Report measured potency estimated from few doses; entry is COc1cccc(-c2ccc3c(NC(=O)C4CC4)n[nH]c3n2)c1
1640

Report measured potency estimated from few doses; entry is Cl.Nc1nccc(-c2c(-c3ccc(F)cc3)ncn2C2CCNCC2)n1
1610

----------
- System: ERCC2
- Design: species or system human, MV4-11 + K-562 + COLO205 + SK-N-BE2 + OVCAR-8
- Condition: read-out: apparent Kd; compound concentrations:100 nM and 1000 nM (sheet 'Samples'); n = 1
Measurement Name: potency estimated from few doses (nM)
Report as a plain number; the unit nM is understood.

Provide potency estimated from few doses, system ERCC2, entry COc1cc[nH]c1/C=C1\C(=O)Nc2ccc(F)c(C#C[C@@H](O)[C@@H](N)[C@@H](C)O)c21
785

Provide potency estimated from few doses, system ERCC2, entry Cl.Cn1c(=O)c(Cc2ccc(F)cc2F)cc2cnc(NC3CCOCC3)nc21
239

Provide potency estimated from few doses, system ERCC2, entry Nc1ncc(-c2cccnc2)c2scc(-c3ccc4c(c3)CCN4C(=O)Cc3ccccc3)c12 [GSK683281A]
1560

Provide potency estimated from few doses, system ERCC2, entry CS(=O)(=O)CCn1c(=O)c(Oc2ccc(F)cc2F)cc2cnc(NC3CCOCC3)nc21
317

Provide potency estimated from few doses, system ERCC2, entry Cc1ccc2c(-c3ccncc3)c(-c3ccc(F)cc3)nn2c1.Cl [GW461484A]
214

Provide potency estimated from few doses, system ERCC2, entry Cl.Cl.NCC(C(=O)Nc1cc(Br)c(-c2ccnc3[nH]ccc23)s1)c1ccccc1.NCC(C(=O)Nc1cc(Br)c(-c2ccnc3[nH]ccc23)s1)c1ccccc1 (centres unmarked) [GSK1269851A]
37.5

----------
- Test system: PKN3;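 also: competition pulldown with Kinobeads ε in cell lysates, inhibitor preincubated 45 min at 4 °C, bound kinases quantified by LC–MS/MS against DMSO control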
- Parameters: species or system human, MV4-11 + K-562 + COLO205 + SK-N-BE2 + OVCAR-8
- Condition: compound concentrations:0.3nM, 1nM, 3nM, 10nM, 30nM, 100nM, 300nM, 1000nM,R2:0.95736535454590599,slope:1.35169947345033,EC50 Standard Error, by the legend:Standard error of the EC50 estimation as provided by the drc package.
Measurement Name: EC50 (µM)
Report as a plain number; the unit µM is understood.

Report measured EC50; entry is Cl.NCc1ccc(-c2nc(-c3ccc(Cl)c(O)c3)c(-c3ccncc3)[nH]2)cc1
0.0384

----------
- Tested on: PIK3CG
- Design: species or system human, MV4-11 + K-562 + COLO205 + SK-N-BE2 + OVCAR-8
- Condition: read-out: apparent Kd; compound concentrations:100 nM and 1000 nM (sheet 'Samples'); n = 1
# potency estimated from few doses annotations
Report as a plain number; the unit nM is understood.

Use these answered entries as a reference point.
O=C1NC(=O)C(N2CCc3ccccc32)=C1c1ccccc1Cl; 1110
C[C@@H](Oc1cc(-n2cnc3ccc(OC4CCN(C)CC4)cc32)sc1C(N)=O)c1ccccc1Cl [GSK579289A]; 1030
Cc1csc(-c2nc(Nc3ccncc3)c3ccccc3n2)n1 [GW869640X]; 1460
CN1C[C@@H]2Cn3c(c(C4=C(c5cn(C)c6ccccc56)C(=O)NC4=O)c4ccccc43)C[C@H]2C1.Cl; 1400

Read the next record carefully.
Report measured potency estimated from few doses; entry is Cc1cccc(Nc2nc(N[C@H]3CCNC3)ncc2C(N)=O)c1.Cl [GSK2197149A]
819

----------
- Test system: HSP90B1
- Set-up: species or system human, MV4-11 + K-562 + COLO205 + SK-N-BE2 + OVCAR-8
- Condition: read-out: apparent Kd; compound concentrations:100 nM and 1000 nM (sheet 'Samples'); n = 1
Measurement Name: potency estimated from few doses
Record the result as number plus unit.

CC(C(=O)NC1CCN(c2ccnc(Nc3ccc(F)cc3)n2)C1)c1ccc(Cl)cc1 (centres unmarked) [GSK1379713A]; 88 nM
Cl.O=S1CCN(Cc2ccc(-c3ccc4ncnc(Nc5ccc(OCc6ccccc6)c(F)c5)c4c3)o2)CC1 [GW576924A]; 1100 nM
C[C@@H]1CCCCN1c1cc(-c2ccc3c(N)n[nH]c3c2)nc(N)n1 [GSK2258759A]; 968 nM
Cc1ccc2c(-c3ccnc(Nc4ccc(C(F)(F)F)cc4)n3)cnn2n1 [GW819776X]; 99.9 nM

Read the next record carefully.
Report measured potency estimated from few doses; entry is CS(=O)(=O)CCNCc1ccc(-c2ccc3ncnc(Nc4ccc(OCc5ccccc5)c(Cl)c4)c3c2)o1.Cl
1710 nM

----------
# potency estimated from few doses annotations
- Test system: AKT1
- Parameters: species or system human, MV4-11 + K-562 + COLO205 + SK-N-BE2 + OVCAR-8
- Condition: read-out: apparent Kd; compound concentrations:100 nM and 1000 nM (sheet 'Samples'); n = 1
Report as a plain number; the unit µM is understood.

COc1ccccc1-c1cc(/C=C2\C(=O)Nc3ncc(Br)cc32)cc(Br)c1O [GW442130X]; 1.54
Fc1ccc(-c2ncn(C3CCNCC3)c2-c2ccnc(Oc3ccc4c(c3)OCO4)n2)cc1 [SB-250715]; 2.33
Nc1c(C(=O)c2ccccc2)cnn1-c1ccc(F)cc1 [RO1151246-000]; 1.46
CCn1c(-c2nonc2N)nc2c(C#CC(C)(C)O)ncc(OC[C@@H]3CCCN3)c21.O=C(O)C(F)(F)F [GSK614526A]; 1.09
C=CC(=O)Nc1cc(-c2nn(C3CCC(N4CCN(C(C)=O)CC4)CC3)c3ncnc(N)c23)ccc1Oc1ccccc1 (stereo not drawn) [TX-85-1]; 2.28

Report measured potency estimated from few doses; entry is COc1cccc(C2=C(Nc3cccc(O)c3)C(=O)NC2=O)c1 [SB-390771]
2.06

Report measured potency estimated from few doses; entry is NS(=O)(=O)c1ccc(Nc2ncc(-c3ccccc3)o2)cc1 [GW572399X]
1.96

Report measured potency estimated from few doses; entry is Cc1cccc(-c2cc(-c3c[nH]nc3-c3ccccn3)ccn2)c1 [GW679395X]
1.77

Report measured potency estimated from few doses; entry is Nc1nc(N)c2nc(-c3ccccc3)[nH]c2n1 [SKF-12778]
1.48

----------
# potency estimated from few doses annotations
- Tested on: NUAK2
- Set-up: species or system human, MV4-11 + K-562 + COLO205 + SK-N-BE2 + OVCAR-8
- Condition: read-out: apparent Kd; compound concentrations:100 nM and 1000 nM (sheet 'Samples'); n = 1
Report as a plain number; the unit nM is understood.

COc1ccc(O)c(C(=O)c2ccc(C(=O)O[C@@H]3CCCNC[C@H]3NC(=O)c3ccncc3)cc2)c1F.Cl; 150
C[C@@H](Oc1cc(-n2cnc3ccc(OC4CCN(C)CC4)cc32)sc1C(N)=O)c1ccccc1Cl [GSK579289A]; 601

Report measured potency estimated from few doses; entry is CNC(=O)c1ccccc1Nc1nc(Nc2ccc(N3CCOCC3)cc2)ncc1Cl.Cl [GSK1576028A]
1370

Report measured potency estimated from few doses; entry is O=C1NC(=O)C(N2CCc3ccccc32)=C1c1ccccc1Cl
780

----------
- Test system: TEC
- Set-up: species or system human, MV4-11 + K-562 + COLO205 + SK-N-BE2 + OVCAR-8
- Condition: read-out: apparent Kd; compound concentrations:100 nM and 1000 nM (sheet 'Samples'); n = 1
# potency estimated from few doses annotations
Report as a plain number; the unit nM is understood.

Use these answered entries as a reference point.
Cc1cnc(Nc2ccc(F)cc2Cl)nc1-c1c[nH]c(C(=O)N[C@H](CO)c2cccc(Cl)c2)c1 [Vertex11e]; 1320
C=CC(=O)Nc1cc(-n2c(=O)ccc3cnc4ccc(-c5ccc(NS(C)(=O)=O)cc5)cc4c32)ccc1C [BMX-IN-1]; 540
CN1C[C@@H]2Cn3c(c(C4=C(c5cn(C)c6ccccc56)C(=O)NC4=O)c4ccccc43)C[C@H]2C1.Cl [RO0320234-001]; 1190

Read the next record carefully.
Report measured potency estimated from few doses; entry is CNC(=O)c1ccccc1Nc1nc(Nc2ccc(N3CCOCC3)cc2)ncc1Cl.Cl [GSK1576028A]
57.7
